target: T1, Cynomolgus Monkey c-Met-Flis-Fc ECD (cynomolgus monkey); assay: SPR Biacore, antibody captured, ECD-Fc analyte, 1:1 model
T1 construct: also called Cynomolgus Monkey cMet-ECD-Fc-Flis; cynomolgus monkey c-Met ECD
T1 sequence (chain, as listed by the source limits assumed): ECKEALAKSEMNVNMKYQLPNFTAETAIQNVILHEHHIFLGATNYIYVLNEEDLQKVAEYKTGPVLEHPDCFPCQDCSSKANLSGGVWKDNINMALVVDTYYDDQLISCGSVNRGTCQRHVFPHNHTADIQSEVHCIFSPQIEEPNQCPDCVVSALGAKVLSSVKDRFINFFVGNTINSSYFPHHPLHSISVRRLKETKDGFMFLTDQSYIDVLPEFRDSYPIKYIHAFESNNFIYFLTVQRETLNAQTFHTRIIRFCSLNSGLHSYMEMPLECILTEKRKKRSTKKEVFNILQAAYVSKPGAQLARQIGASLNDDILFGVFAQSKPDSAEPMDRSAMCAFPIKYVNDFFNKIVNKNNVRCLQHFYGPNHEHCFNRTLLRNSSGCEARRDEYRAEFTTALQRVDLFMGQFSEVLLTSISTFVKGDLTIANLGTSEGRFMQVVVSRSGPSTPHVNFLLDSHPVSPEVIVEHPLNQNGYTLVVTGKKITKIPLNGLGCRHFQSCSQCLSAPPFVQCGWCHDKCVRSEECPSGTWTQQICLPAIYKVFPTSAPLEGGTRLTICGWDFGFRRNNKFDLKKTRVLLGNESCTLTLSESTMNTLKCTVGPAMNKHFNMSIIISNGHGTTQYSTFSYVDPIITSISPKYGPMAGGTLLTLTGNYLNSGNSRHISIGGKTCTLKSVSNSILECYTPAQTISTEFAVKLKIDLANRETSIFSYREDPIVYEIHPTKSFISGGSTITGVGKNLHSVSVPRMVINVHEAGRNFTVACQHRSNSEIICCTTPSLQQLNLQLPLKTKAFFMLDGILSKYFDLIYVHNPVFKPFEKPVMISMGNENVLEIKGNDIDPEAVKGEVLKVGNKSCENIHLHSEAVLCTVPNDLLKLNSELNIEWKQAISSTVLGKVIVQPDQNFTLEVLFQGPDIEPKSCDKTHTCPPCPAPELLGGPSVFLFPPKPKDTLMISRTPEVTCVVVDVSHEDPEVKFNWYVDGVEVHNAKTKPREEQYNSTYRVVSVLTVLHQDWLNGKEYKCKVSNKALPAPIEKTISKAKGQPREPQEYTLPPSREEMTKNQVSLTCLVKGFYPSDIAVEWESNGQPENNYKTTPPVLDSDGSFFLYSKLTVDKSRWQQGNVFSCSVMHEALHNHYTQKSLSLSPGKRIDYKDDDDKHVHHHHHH
REPORTED_METRIC: kon (M⁻¹ s⁻¹)
One number for each entry, in M⁻¹ s⁻¹.

Below, each entry is followed by its recorded kon result.
BINDER	RESULT_UNIT	kon
D11-S17Y (antibody, human IgG2, kappa, V domains shown, Human engineered IgG2, kappa) VH: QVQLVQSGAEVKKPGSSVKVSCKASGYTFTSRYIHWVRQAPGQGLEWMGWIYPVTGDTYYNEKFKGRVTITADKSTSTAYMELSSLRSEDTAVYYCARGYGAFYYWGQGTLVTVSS VL: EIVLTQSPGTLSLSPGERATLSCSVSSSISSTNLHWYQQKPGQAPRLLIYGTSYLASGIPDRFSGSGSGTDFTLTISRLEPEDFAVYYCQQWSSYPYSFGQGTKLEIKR	M⁻¹ s⁻¹	70000
C8-co-16 (antibody, human IgG2, kappa, V domains shown, Called IgG4, kappa) VH: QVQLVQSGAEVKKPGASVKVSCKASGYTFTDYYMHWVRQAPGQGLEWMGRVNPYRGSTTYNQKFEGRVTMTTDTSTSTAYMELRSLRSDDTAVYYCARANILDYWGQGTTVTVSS VL: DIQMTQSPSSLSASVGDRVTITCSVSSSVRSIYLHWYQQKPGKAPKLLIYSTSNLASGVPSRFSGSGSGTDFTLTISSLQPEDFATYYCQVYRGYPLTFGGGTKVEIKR	M⁻¹ s⁻¹	103000
D11-8B8 (antibody, human IgG2, kappa, V domains shown, Human engineered IgG2, kappa; expressed in HEK293 EBNA cells; also called Mab D11-8B8) VH: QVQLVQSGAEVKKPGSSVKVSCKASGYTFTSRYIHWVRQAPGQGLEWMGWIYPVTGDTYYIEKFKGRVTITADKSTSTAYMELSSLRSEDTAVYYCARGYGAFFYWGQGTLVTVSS VL: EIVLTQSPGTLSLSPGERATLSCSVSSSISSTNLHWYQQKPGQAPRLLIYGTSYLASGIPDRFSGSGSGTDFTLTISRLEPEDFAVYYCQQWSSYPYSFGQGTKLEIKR	M⁻¹ s⁻¹	78000
C8-6 (antibody, human IgG2, kappa, V domains shown, Called IgG4, kappa; also called Mab C8-6) VH: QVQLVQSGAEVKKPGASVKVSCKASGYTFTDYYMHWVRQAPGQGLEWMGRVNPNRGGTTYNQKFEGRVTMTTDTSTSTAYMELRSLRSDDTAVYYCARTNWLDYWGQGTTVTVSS VL: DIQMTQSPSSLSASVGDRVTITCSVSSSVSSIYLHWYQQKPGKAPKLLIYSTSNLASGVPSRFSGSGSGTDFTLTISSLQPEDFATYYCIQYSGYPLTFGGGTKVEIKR	M⁻¹ s⁻¹	140000

Challenge: # input binder: D11-C27G3 (antibody, human IgG2, kappa, V domains shown, Human engineered IgG2, kappa; also called D11-27G3) VH: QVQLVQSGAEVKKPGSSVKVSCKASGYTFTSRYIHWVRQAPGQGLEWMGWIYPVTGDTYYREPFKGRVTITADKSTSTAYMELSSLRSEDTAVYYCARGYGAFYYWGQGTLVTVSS VL: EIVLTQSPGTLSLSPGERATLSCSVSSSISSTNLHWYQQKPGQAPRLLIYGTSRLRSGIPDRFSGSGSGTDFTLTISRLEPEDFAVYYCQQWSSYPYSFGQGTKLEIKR ; wanted: its kon
Response given: 50000

Taken from patent US20100129369A1.
